tested on: GR-ST (B-Lymphoblastic Leukemia); assay: Bliss excess, mean over the matrix (fraction); higher = more synergy;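 note: after 72 h of two-drug dosing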
VALUE KIND: Bliss excess
Write the number on its own, no unit after it.

For the compound COc1cc2c(cc1OCCCCCOc1cc3c(cc1OC)C(=O)N1C=C(C)C[C@H]1C=N3)N=C[C@@H]1CC(C)=CN1C2=O [SG3199] + O=C(c1cc(Cc2n[nH]c(=O)c3ccccc23)ccc1F)N1CCN(C(=O)C2CC2)CC1 [Olaparib] (first compound max 0.001 µM, 7x7, partner max 10 µM) , give its reported Bliss excess. -0.0339

For the compound NC1(C(=O)N[C@@H](CCO)c2ccc(Cl)cc2)CCN(c2ncnc3[nH]ccc23)CC1 [Capivasertib] + CC(=O)c1c(C)c2cnc(Nc3ccc(N4CCNCC4)cn3)nc2n(C2CCCC2)c1=O [Palbociclib] (first compound max 10 µM, 7x7, partner max 10 µM) , give its reported Bliss excess. -0.0067

Every entry's value here was drawn from the supplement of paper PMC11061612.
